read-out: xenobiotic metabolism (CYP1A1), CYP1A1 (gene 1543); assay: CLD_CYP1A1_24hr: CellzDirect (CLD) Gene Expression Assay for xenobiotic metabolism (CYP1A1) at 24 hours (AID 2283673);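 also: CYP1A1 mRNA level by quantitative nuclease protection with chemiluminescence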
Results filed as inconclusive are left out. Calls of active or inactive are those of the source. The calls were made as follows: active = hit-call score of the fitted dose curve at least 0.9, where 1 is the maximum; inconclusive = response in the unintended direction; inactive = score below 0.9.
Classes used: true (1) (active), false (0) (inactive)

{"compound": "CCC(C)n1c(=O)[nH]c(C)c(Br)c1=O (stereo unspecified)", "group_label": "true (1)"}
{"compound": "CCNP(=S)(OC)O/C(C)=C/C(=O)OC(C)C (stereo unspecified)", "group_label": "true (1)"}
{"compound": "Cc1c(COC(=O)[C@@H]2[C@H](/C=C(\\Cl)C(F)(F)F)C2(C)C)cccc1-c1ccccc1", "group_label": "true (1)"}
{"compound": "CC(C)(C)C(=O)C(Oc1ccc(Cl)cc1)n1cncn1 (stereo unspecified)", "group_label": "true (1)"}
{"compound": "CSC(=O)c1c(C(F)F)nc(C(F)(F)F)c(C(=O)SC)c1CC(C)C", "group_label": "true (1)"}
{"compound": "O=c1n(Cl)c(=O)n(Cl)c(=O)n1Cl", "group_label": "true (1)"}
{"compound": "CC1(C)CON(Cc2ccccc2Cl)C1=O", "group_label": "false (0)"}
{"compound": "CCOP(=O)(OCC)Oc1nc(Cl)c(Cl)cc1Cl", "group_label": "false (0)"}
{"compound": "CC(C)Oc1cccc(NC(=O)c2ccccc2C(F)(F)F)c1", "group_label": "true (1)"}
{"compound": "COc1cc(OC)nc(NC(=O)NS(=O)(=O)c2ncccc2OCC(F)(F)F)n1", "group_label": "false (0)"}
{"compound": "COC(=O)NS(=O)(=O)c1ccc(N)cc1", "group_label": "true (1)"}
{"compound": "COP(=S)(OC)Oc1ccc([N+](=O)[O-])c(C)c1", "group_label": "true (1)"}
{"compound": "Nc1c(Cl)c(F)nc(OCC(=O)O)c1Cl", "group_label": "false (0)"}
{"compound": "CC(C)N1C(=O)c2ccccc2NS1(=O)=O", "group_label": "false (0)"}
{"compound": "COP(=O)(OC)O/C(C)=C/C(=O)N(C)C", "group_label": "false (0)"}
{"compound": "CCCN(CC)CC1COC2(CCC(C(C)(C)C)CC2)O1 (stereo unspecified)", "group_label": "true (1)"}

###

test: TOX21_p53_BLA_p4_viability: Viability Assessment in the Tox21 HCT-116 p53 Agonism Beta-lactamase Assay, Phase 4 (AID 2283597);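 also: hits lower the luminescence signal meaning cytotoxicity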
Records with an inconclusive call do not appear. Activity calls are given as the source filed them. Rule for the calls: active = hit-call score of the fitted dose curve at least 0.9, where 1 is the maximum; inconclusive = response in the unintended direction; inactive = score below 0.9.
assay_endpoint: AC50

{"compound": "N#Cc1c[nH]cc1-c1cccc2c1OC(F)(F)O2", "assay_endpoint": "AC50", "val": "inactive"}
{"compound": "CCCC(=NOCC)C1=C(O)CC(CC(C)SCC)CC1=O (centres undefined)", "assay_endpoint": "AC50", "val": "inactive"}
{"compound": "CCCCC(O)(Cn1cncn1)c1ccc(Cl)cc1Cl (centres undefined)", "assay_endpoint": "AC50", "val": "82 µM (active)"}
{"compound": "COP(=S)(OC)Oc1ccc([N+](=O)[O-])c(C)c1", "assay_endpoint": "AC50", "val": "inactive"}
{"compound": "CC(C)N1C(=O)c2ccccc2NS1(=O)=O", "assay_endpoint": "AC50", "val": "inactive"}
{"compound": "CSC(=O)c1c(C(F)F)nc(C(F)(F)F)c(C(=O)SC)c1CC(C)C", "assay_endpoint": "AC50", "val": "inactive"}
{"compound": "CC1(C)CON(Cc2ccccc2Cl)C1=O", "assay_endpoint": "AC50", "val": "inactive"}
{"compound": "COCC(C)N(C(=O)CCl)c1c(C)csc1C (centres undefined)", "assay_endpoint": "AC50", "val": "inactive"}
{"compound": "CCNP(=S)(OC)O/C(C)=C/C(=O)OC(C)C (centres undefined)", "assay_endpoint": "AC50", "val": "inactive"}
